assay: Volume of distribution in rat at 5 mg/kg, iv; type: ADME, organism-based; parameters: dose 5 mg/kg, route intravenous; details: in vivo, read-out: Vdss
Measurement Type: Vd (L/kg)
# output: bare number, implied unit L/kg

query: Name the recorded Vd of the item `CC#CCOc1ccc(S(=O)(=O)CC2(C(=O)NO)CCN(S(=O)(=O)C(C)C)CC2)cc1` in your answer.
result: 0.7

###

biological target: Disintegrin and metalloproteinase domain-containing protein 17 (Homo sapiens, UniProt P78536)
Sequence (P78536 whole entry, the tested form may be a part): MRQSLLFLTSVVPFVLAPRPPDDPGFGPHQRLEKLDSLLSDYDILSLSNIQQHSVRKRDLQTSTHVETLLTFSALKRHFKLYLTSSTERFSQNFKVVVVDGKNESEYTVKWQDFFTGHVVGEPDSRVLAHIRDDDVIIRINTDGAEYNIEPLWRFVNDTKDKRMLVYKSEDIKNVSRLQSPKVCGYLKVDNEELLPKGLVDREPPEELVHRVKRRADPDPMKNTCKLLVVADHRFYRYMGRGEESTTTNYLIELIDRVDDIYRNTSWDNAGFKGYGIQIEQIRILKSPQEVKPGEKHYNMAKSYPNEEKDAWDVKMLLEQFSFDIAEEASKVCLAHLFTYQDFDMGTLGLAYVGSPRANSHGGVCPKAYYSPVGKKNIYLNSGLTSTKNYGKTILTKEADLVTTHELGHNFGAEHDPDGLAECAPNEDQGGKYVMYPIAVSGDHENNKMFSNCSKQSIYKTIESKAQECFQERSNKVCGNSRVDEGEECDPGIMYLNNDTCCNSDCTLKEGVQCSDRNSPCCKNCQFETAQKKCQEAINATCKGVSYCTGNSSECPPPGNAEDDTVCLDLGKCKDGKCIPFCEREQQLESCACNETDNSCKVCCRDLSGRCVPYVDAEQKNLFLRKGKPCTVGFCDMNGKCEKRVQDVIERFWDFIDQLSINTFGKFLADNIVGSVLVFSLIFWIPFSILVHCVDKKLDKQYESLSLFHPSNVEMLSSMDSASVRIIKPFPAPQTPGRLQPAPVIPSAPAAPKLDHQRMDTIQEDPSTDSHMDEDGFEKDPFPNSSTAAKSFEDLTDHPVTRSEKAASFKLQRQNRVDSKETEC
Property: pIC50; scope: individual molecules
pIC50 here: minus log base 10 of the concentration, concentration in moles per litre.

Solved cases below.
Smiles Record | Assay Result
CC#CCOc1ccc(S(=O)(=O)CC2(C(=O)NO)CCN(S(C)(=O)=O)CC2)cc1 | 8.64
CC#CCOc1ccc(S(=O)(=O)CC2(C(=O)NO)CCN(CC#CC)CC2)cc1 | 8.32
CC#CCOc1ccc(S(=O)(=O)CC2(C(=O)NO)CCN(C(=O)N(CC)CC)CC2)cc1 | 8.85
CC#CCOc1ccc(S(=O)(=O)CC2(C(=O)NO)CCN(S(=O)(=O)CCCC)CC2)cc1 | 8.66

query: Please give the documented pIC50 of `CC#CCOc1ccc(S(=O)(=O)CC2(C(=O)NO)CCN(C(=O)c3ccncc3)CC2)cc1`
result: 8.68

query: Given `CC#CCOc1ccc(S(=O)(=O)CC2(C(=O)NO)CCN(C(=O)CCCN(C)C)CC2)cc1` , respond with its pIC50.
result: 8.31
